Recorded values, source paper PMC6272684.

Listed below: Inhibition percentage against C. neoformans ATCC 32264 values for each entry.
test system: C. neoformans ATCC 32264; assay: Antifungal broth microdilution (CLSI M27-A3), growth inhibition; type: cell-based, Cryptococcus neoformans; conditions: 3.9 μg∙mL^−1, 48 h
The reply should be a number in %, with the unit left off.

Consider the worked cases shown below.
compound	tgt	resultNumber
CC(C)c1cc2c3c(c1OC(=O)CCCc1cn(Cc4ccc(Br)cc4)nn1)OC(=O)[C@@]31CCCC(C)(C)[C@@H]1CC2	C. neoformans ATCC 32264	0.0
CC(C)c1cc2c(c(OC(=O)CCCc3cn(Cc4ccc(Br)cc4)nn3)c1OC(=O)CCCc1cn(Cc3ccc(Br)cc3)nn1)C13CCCC(C)(C)C1CC2OC3=O (stereo not drawn)	C. neoformans ATCC 32264	0.0
CC(C)c1cc2c(c(OC(=O)CCc3cn(Cc4ccc(Br)cc4)nn3)c1OC(=O)CCc1cn(Cc3ccc(Br)cc3)nn1)C13CCCC(C)(C)C1CC2OC3=O (stereo not drawn)	C. neoformans ATCC 32264	1.2
CC(C)c1cc2c(c(OC(=O)CCc3cn(CSc4ccccc4)nn3)c1OC(=O)CCc1cn(CSc3ccccc3)nn1)C13CCCC(C)(C)C1CC2OC3=O (stereo not drawn)	C. neoformans ATCC 32264	0.0
CC(C)c1cc2c3c(c1OC(=O)CCCc1cn(Cc4ccc([N+](=O)[O-])cc4)nn1)OC(=O)C31CCCC(C)(C)C1CC2 (stereo not drawn)	C. neoformans ATCC 32264	0.0

// sample COC(=O)C12CCCC(C)(C)C1CCc1cc(C(C)C)c(OC(=O)CCCc3cn(Cc4ccccc4)nn3)c(OC(=O)CCCc3cn(Cc4ccccc4)nn3)c12 (stereo not drawn) , its Inhibition percentage against C. neoformans ATCC 32264 was 0.0

// sample CC(C)c1cc2c3c(c1OC(=O)CCc1cn(Cc4ccc(Br)cc4)nn1)OC(=O)[C@@]31CCCC(C)(C)[C@@H]1CC2 , its Inhibition percentage against C. neoformans ATCC 32264 was 2.3

// sample COC(=O)C12CCCC(C)(C)C1CCc1cc(C(C)C)c(OC(=O)CCCc3cn(Cc4ccc([N+](=O)[O-])cc4)nn3)c(OC(=O)CCCc3cn(Cc4ccc([N+](=O)[O-])cc4)nn3)c12 (stereo not drawn) , its Inhibition percentage against C. neoformans ATCC 32264 was 0.0

// sample CC(C)c1cc2c3c(c1OC(=O)CCc1cn(Cc4ccccc4)nn1)OC(=O)[C@@]31CCCC(C)(C)[C@@H]1CC2 , its Inhibition percentage against C. neoformans ATCC 32264 was 4.9

// sample CC(C)c1cc2c(c(OC(=O)CCc3cn(Cc4ccc([N+](=O)[O-])cc4)nn3)c1OC(=O)CCc1cn(Cc3ccc([N+](=O)[O-])cc3)nn1)C13CCCC(C)(C)C1CC2OC3=O (stereo not drawn) , its Inhibition percentage against C. neoformans ATCC 32264 was 6.0

----------
tested on: C. albicans ATCC 10231; assay: Antifungal broth microdilution (CLSI M27-A3), growth inhibition; format: cell-based, Candida albicans; conditions: 31. μg∙mL^−1, 48 h
Listed below: Inhibition percentage against C. albicans ATCC 10231 values for each entry.
The reply should be a number in %, with the unit left off.

Consider the worked cases shown below.
compound	unitOfMeasure	resultNumber
CC(C)c1cc2c(c(OC(=O)CCCc3cn(Cc4ccccc4)nn3)c1OC(=O)CCCc1cn(Cc3ccccc3)nn1)C13CCCC(C)(C)C1CC2OC3=O (stereo not drawn) [Compound 20]	%	4.3
CC(C)c1cc2c(c(OC(=O)CCc3cn(Cc4ccc([N+](=O)[O-])cc4)nn3)c1OC(=O)CCc1cn(Cc3ccc([N+](=O)[O-])cc3)nn1)C13CCCC(C)(C)C1CC2OC3=O (stereo not drawn) [Compound 23]	%	6.0

Now let's try a different one.
// sample CC(C)c1cc2c3c(c1OC(=O)CCc1cn(Cc4ccc(Br)cc4)nn1)OC(=O)[C@@]31CCCC(C)(C)[C@@H]1CC2 [Compound 5] , its Inhibition percentage against C. albicans ATCC 10231 was 3.0
